Entry source: patent US10760052B2

# measured-on: mu opiate receptor (MOR) (Rattus norvegicus, UniProt P33535)
# Construct: from tissue; host or cells: striatum (membrane preparation)
# Sequence (P33535 whole entry): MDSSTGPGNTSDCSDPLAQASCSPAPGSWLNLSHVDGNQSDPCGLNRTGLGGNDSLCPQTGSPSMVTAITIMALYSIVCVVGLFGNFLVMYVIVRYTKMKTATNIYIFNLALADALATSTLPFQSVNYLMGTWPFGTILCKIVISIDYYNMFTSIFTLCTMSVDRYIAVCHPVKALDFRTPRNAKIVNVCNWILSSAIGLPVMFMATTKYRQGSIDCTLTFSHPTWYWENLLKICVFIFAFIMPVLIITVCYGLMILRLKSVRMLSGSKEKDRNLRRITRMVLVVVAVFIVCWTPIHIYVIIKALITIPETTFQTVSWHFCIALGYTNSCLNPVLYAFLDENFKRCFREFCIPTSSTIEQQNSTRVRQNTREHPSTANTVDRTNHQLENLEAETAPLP
# Format: biochemical
Please enter 1.0 where [35S]GTPγS binding, FLNA-Binding Compound as Agonist at 1 μM is greater than or equal to 300%, and 0.0 where it is lower.

Look over these answered cases.
compound	class
COc1ccc(S(=O)(=O)N2CCOC23CCN(CC2CC2)CC3)cc1 [Compound C0090M]	1.0
CC(=O)c1ccc(S(=O)(=O)N2CC(CN(C)C)OC23CCNCC3)cc1 (stereo not shown) [Compound C0118M]	0.0
C[C@@H](NC(=O)[C@@H](N)Cc1ccc(O)cc1)C(=O)NCC(=O)N(C)[C@@H](Cc1ccccc1)C(=O)NCCO [DAMGO, reference compound]	0.0

**Query** Decide: [35S]GTPγS binding, FLNA-Binding Compound as Agonist at 1 μM of CC(=O)c1ccc(S(=O)(=O)N2CC(=O)NC23CCNCC3)cc1 [Compound C0086M] >= 300%?
**Result** 0.0

**Query** Quick check: does CC(=O)c1ccc(S(=O)(=O)N2C(Cc3c[nH]cn3)C(=O)NC23CCNCC3)cc1 (stereo not shown) [Compound C0119M] have [35S]GTPγS binding, FLNA-Binding Compound as Agonist at 1 μM greater than or equal to 300%?
**Result** 0.0

**Query** Could you please find out whether CCc1ccc(S(=O)(=O)N2CCOC23CCN(CC2CC2)CC3)cc1 [Compound C0135M] has [35S]GTPγS binding, FLNA-Binding Compound as Agonist at 1 μM that meets 300% or exceeds it?
**Result** 1.0

**Query** Quick check: does O=C1CN(Cc2ccccc2)C2(CCNCC2)N1 [Compound C0115M] have [35S]GTPγS binding, FLNA-Binding Compound as Agonist at 1 μM greater than or equal to 300%?
**Result** 0.0

**Query** Check if [35S]GTPγS binding, FLNA-Binding Compound as Agonist at 1 μM >= 300% (inclusive). Item: O=C1CNC2(CCNCC2)N1Cc1ccccc1 [Compound C0114M]
**Result** 0.0

----------
Listing of recorded Concentration of FLNA-Binding Compound as Agonist 0.1 μM by entry.
# measured-on: mu opiate receptor (MOR) (Rattus norvegicus, UniProt P33535)
# Construct: from tissue; host or cells: striatum (membrane preparation)
# Format: biochemical
# condition-summary: [35S]GTPγS binding to Gαo in striatal membranes; compound 0.1 μM
Number in %, nothing else.

compound	u	measurement
CC1CN(CC(O)COc2ccc(Cl)cc2)CC(C)O1 (stereo not drawn) [Compound A0047]	%	233.0

Now for a further compound.
**Query** # query: Concentration of FLNA-Binding Compound as Agonist 0.1 μM of entry COc1c2c(cc3c1C(CC(=O)c1ccc(N4CCOCC4)cc1)[N+](C)(C)CC3)OCO2 (stereo not drawn) [Compound B0004]
**Result** 170.3

----------
# measured-on: mu opiate receptor (MOR) (Rattus norvegicus, UniProt P33535)
# Construct: from tissue; host or cells: striatum (membrane preparation)
# Assay type: biochemical
Field 'label' (enum: YES / NO). Set to YES when % DAMGO (1 μM) is strictly under 90%; else NO.

compound	class
COc1c2c(cc3c1C(CC(=O)Cc1ccccc1F)[N+](C)(C)CC3)OCO2 (centres unmarked) [Compound B0055]	NO
CC1CCC(C(C)C)C(OCC(O)CN2CCCCC2C)C1 (centres unmarked) [Compound A0007]	NO
CC1CCC(C(C)C)C(OCC(O)CN2CCCC2)C1 (centres unmarked) [Compound A0001]	YES
CC(=O)c1ccc(S(=O)(=O)N2CC(CN(C)C)OC23CCNCC3)cc1 (centres unmarked) [Compound C0118M]	NO

**Query** API: query returns whether the compound falls strictly under 90% in % DAMGO (1 μM). Query: CC1CCN(CC(O)COC2CC(C)CCC2C(C)C)CC1 (centres unmarked) [Compound A0006]
**Result** YES

**Query** Find out if reported % DAMGO (1 μM) for CCCCN1CCC2(CC1)OCCN2S(=O)(=O)c1ccc(OC)cc1 [Compound C0102M] is less than 90%
**Result** NO

**Query** Field: below-cutoff. Rule: recorded % DAMGO (1 μM) strictly less than 90%. Subject: CC1CCC(C(C)C)C(OCC(O)CN2CCCN(C)CC2)C1 (centres unmarked) [Compound A0010]
**Result** NO

**Query** Threshold test, % DAMGO (1 μM) < 90%: OC(COc1ccc(Br)c(F)c1)CN1CCCCC1 (centres unmarked) [Compound A0058]
**Result** NO

**Query** Given COc1ccccc1S(=O)(=O)N1CCC2(CC1)OCCN2S(=O)(=O)c1ccccc1OC [Compound C0003] , is recorded % DAMGO (1 μM) strictly lower than 90%?
**Result** YES
